The values you see were collected from ChEMBL document CHEMBL1961873.

target: Proto-oncogene tyrosine-protein kinase Src (Homo sapiens) (UniProt P12931); conditions: at 0.1 µM;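 also: values are averaged inhibition of Src, tested against the GSK PKIS kinase inhibitor set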
Sequence (P12931 2-536 limits assumed): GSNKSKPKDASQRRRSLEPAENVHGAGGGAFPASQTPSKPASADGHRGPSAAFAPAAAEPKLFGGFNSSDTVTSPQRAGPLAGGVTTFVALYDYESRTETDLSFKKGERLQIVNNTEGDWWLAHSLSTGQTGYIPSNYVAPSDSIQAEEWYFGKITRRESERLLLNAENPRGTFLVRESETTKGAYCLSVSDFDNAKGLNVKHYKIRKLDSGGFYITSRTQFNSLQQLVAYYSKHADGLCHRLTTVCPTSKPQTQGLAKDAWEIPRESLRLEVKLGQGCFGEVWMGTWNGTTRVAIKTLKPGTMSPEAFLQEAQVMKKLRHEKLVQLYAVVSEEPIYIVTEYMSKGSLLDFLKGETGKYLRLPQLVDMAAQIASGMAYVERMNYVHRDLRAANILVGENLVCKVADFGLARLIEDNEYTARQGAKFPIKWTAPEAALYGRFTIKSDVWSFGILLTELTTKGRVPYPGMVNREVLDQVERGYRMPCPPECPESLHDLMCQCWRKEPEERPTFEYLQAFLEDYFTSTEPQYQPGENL
Kindly supply the reported inhibition values for the records listed here.
# output: bare number, implied unit %

The observed inhibition for CCn1c(-c2nonc2N)nc2c(C#CCN)ncc(OCCCN)c21 when tested with Proto-oncogene tyrosine-protein kinase Src (Homo sapiens) (UniProt P12931) stands at -2.04

NS(=O)(=O)c1ccc(N/C=C2\C(=O)Nc3ccc4ncsc4c32)cc1 on Proto-oncogene tyrosine-protein kinase Src (Homo sapiens) (UniProt P12931) gives inhibition = 12.2

Lab note: molecule Nc1nonc1-c1nc2cnccc2n1C1CCCCC1 tested on Proto-oncogene tyrosine-protein kinase Src (Homo sapiens) (UniProt P12931); recorded inhibition was 1.24

Entry COc1cc(C=NNc2ncnc3c2cnn3Cc2ccccc2)ccc1O , Proto-oncogene tyrosine-protein kinase Src (Homo sapiens) (UniProt P12931) data, inhibition value: 31.2

inhibition of Cc1cc(-c2ccco2)cc(C)c1/C=C/c1cncc(-c2nn[nH]n2)c1 , assay on Proto-oncogene tyrosine-protein kinase Src (Homo sapiens) (UniProt P12931), is 2.38

Lab entry: Proto-oncogene tyrosine-protein kinase Src (Homo sapiens) (UniProt P12931) assay, molecule NC(=O)c1sc(-n2cnc3cc(C(F)(F)F)ccc32)cc1OCc1ccccc1Br , inhibition = 3.37

Item CCn1c(-c2nonc2N)nc2c(C#CC(C)(C)O)ncc(OCC3CCNCC3)c21 was tested on Proto-oncogene tyrosine-protein kinase Src (Homo sapiens) (UniProt P12931); the reported inhibition is -0.03

Simply: COc1cc2c(cc1Nc1nc(Nc3ccsc3C(N)=O)c3cc[nH]c3n1)N(C(=O)CN(C)C)CCC2 , Proto-oncogene tyrosine-protein kinase Src (Homo sapiens) (UniProt P12931), inhibition = 8.11

COc1cccc(COc2cc(-n3cnc4ccccc43)sc2C(N)=O)c1 tested on Proto-oncogene tyrosine-protein kinase Src (Homo sapiens) (UniProt P12931) gave inhibition: -0.77

Known value: Proto-oncogene tyrosine-protein kinase Src (Homo sapiens) (UniProt P12931) inhibition of the molecule CCn1c(-c2nonc2N)nc2c(C#CC(C)(C)O)nc(O[C@@H](CN)c3ccccc3)cc21 equals 2.84
